# Tested on: LPETG (Abz-LPETGK(Dnp)-CONH2)
# Measurement protocol: In vitro sortase kinetics HPLC assay, LPETG substrate
# Type: biochemical
# Recorded conditions: Example 5 variants; substrate wt (LPETG)
Reported Avg kcat (Hz) values for a set of molecules
Write it as a number; the unit Hz goes unstated.

molecule="eSrtA(2A-4): 5mut + A104H K162R V168I I182V (protein) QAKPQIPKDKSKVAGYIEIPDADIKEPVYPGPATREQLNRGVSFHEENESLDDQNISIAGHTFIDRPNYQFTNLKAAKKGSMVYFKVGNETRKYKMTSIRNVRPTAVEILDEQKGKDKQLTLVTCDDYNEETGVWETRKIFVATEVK" result_number=0.0501

Kindly review the next molecule as well.
Sample eSrtA(4S-3.5) (protein) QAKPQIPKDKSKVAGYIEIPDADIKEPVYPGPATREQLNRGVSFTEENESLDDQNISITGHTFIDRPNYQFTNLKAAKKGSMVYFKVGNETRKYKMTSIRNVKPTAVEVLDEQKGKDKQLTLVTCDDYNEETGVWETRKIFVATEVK ; Avg kcat (Hz) observed: 5.482
